Each record here notes measured IC50.
EXPERIMENTAL SYSTEM: ULK1 kinase (Homo sapiens)
Construct: purchased Eurofins 14-959
Sequence (O75385 with tags, fused parts or gaps): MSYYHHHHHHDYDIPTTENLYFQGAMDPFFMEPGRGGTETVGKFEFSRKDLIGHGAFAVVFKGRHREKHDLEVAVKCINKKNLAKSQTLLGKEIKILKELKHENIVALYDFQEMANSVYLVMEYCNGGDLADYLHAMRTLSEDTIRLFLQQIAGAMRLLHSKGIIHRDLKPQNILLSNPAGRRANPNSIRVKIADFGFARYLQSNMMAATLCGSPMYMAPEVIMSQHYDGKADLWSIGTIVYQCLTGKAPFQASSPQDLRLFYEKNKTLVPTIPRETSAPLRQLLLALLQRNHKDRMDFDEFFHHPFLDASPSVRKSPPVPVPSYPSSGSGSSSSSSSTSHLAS
ASSAY SUMMARY: Biochemical assay for ULK1.2 (coupled pyruvate kinase/lactate dehydrogenase assay)
PROTOCOL CONDITIONS: 19 nM ULK1 (Eurofins), myelin basic protein, 1 mM ATP
READOUT KIND: IC50

SMILES NOTATION	READOUT KIND	RESULT
Cc1nn(CCCN(C)C)cc1Nc1ncc(C(F)(F)F)c(NCCCN2CCCCC2=O)n1	IC50	25 to 100 nM
CCc1nn(C2CCNCC2)cc1Nc1ncc(C(F)(F)F)c(NCCCN2CCCCC2=O)n1	IC50	1 to 25 nM
Cc1nn(C2CCNCC2)cc1Nc1ncc(C(F)(F)F)c(NCCCN2CCCCC2=O)n1	IC50	1 to 25 nM
Cc1nn(C2CCN(C)CC2)cc1Nc1ncc(C(F)(F)F)c(NCCCN2CCN(C)C2=O)n1	IC50	25 to 100 nM

----------
EXPERIMENTAL SYSTEM: ULK1 kinase (Homo sapiens, UniProt O75385, E37A/K38A)
Construct: (residues 1-283; ID NO: 2)
ASSAY SUMMARY: Biochemical assay for ULK1.3 (coupled pyruvate kinase/lactate dehydrogenase assay)
PROTOCOL CONDITIONS: 0.1 nM ULK1 (from Beryllium), peptide substrate, 1 mM ATP
pIC50: −log10 of the molar value.
Each record here notes measured pIC50.

MOLECULE	pIC50
Cc1nn(C2CCN(C(C)C)CC2)cc1Nc1ncc(Cl)c(NCCCN2CCCOC2=O)n1	7.00 to 7.60
CCc1nn(C2CCN(C)CC2)cc1Nc1ncc(C2CC2)c(NCCCN2CCCOCC2=O)n1	< 6.30
Cc1nn(C(C)(C)C(N)=O)cc1Nc1ncc(C(F)(F)F)c(NCCCN2CCCCC2=O)n1	< 6.30
CCc1nn(C2CCN(C)CC2)cc1Nc1ncc(C(F)(F)F)c(NCCCN2CCOCCC2=O)n1	7.60 to 9.00
Cc1nn(C2CCN(C)CC2)cc1Nc1ncc(C(F)(F)F)c(NCCCN2CCOCCC2=O)n1	7.60 to 9.00
Cc1nn(CCCN2CCOCC2)cc1Nc1ncc(Cl)c(NCCCN2CCCOCC2=O)n1	< 6.30
CCN1CCC(n2cc(Nc3ncc(C4CC4)c(NCCCN4CCOCCC4=O)n3)c(C)n2)CC1	< 6.30
Cc1nn(C(C)(C)C#N)cc1Nc1ncc(C(F)(F)F)c(NCCCN2CCCOCC2=O)n1	6.30 to 7.00
Cc1nn(C2CCN(C)C2)cc1Nc1ncc(Br)c(NCCCN2CCCOCC2=O)n1 (centres unmarked)	7.00 to 7.60
Cc1nn(CCN(C)C)cc1Nc1ncc(C(F)(F)F)c(NCCCN2CCCOCC2=O)n1	7.00 to 7.60
Cc1nn([C@H]2CCN(C)C2)cc1Nc1ncc(Br)c(NCCCN2CCCCC2=O)n1	7.00 to 7.60
Cc1nn(C2CCN(C(C)C)CC2)cc1Nc1ncc(Br)c(NCCCN2CCCOC2=O)n1	7.00 to 7.60
Cc1nn(CCN(C)C)cc1Nc1ncc(C2CC2)c(NCCCN2CCCOCC2=O)n1	< 6.30
Cc1nn(C2CCN(C)CC2)cc1Nc1ncc(C(F)(F)F)c(NCCCN2CCCOCC2=O)n1	7.60 to 9.00
Cc1nn(CCN(C)C)cc1Nc1ncc(Br)c(NCCCN2CCOCCC2=O)n1	6.30 to 7.00
Cc1nn(C2CCN(C)CC2)cc1Nc1ncc(C2CC2)c(NCCCN2CCOCCC2=O)n1	6.30 to 7.00
Cc1nn([C@@H]2CCN(C)C2)cc1Nc1ncc(Br)c(NCCCN2CCOCCC2=O)n1	7.00 to 7.60

----------
EXPERIMENTAL SYSTEM: ULK1 kinase (Homo sapiens)
Sequence (O75385 with tags, fused parts or gaps): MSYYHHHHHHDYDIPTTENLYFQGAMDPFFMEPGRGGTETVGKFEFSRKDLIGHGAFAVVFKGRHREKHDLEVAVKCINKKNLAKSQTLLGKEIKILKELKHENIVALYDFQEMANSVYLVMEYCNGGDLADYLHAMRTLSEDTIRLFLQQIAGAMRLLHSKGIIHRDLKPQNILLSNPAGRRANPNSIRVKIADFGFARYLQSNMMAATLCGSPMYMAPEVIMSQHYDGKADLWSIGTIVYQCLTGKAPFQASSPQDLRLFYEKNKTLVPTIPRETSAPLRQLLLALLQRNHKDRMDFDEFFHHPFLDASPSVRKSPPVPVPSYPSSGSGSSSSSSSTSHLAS
pIC50: −log10 of the molar value.
READOUT KIND: pIC50

COMPOUND	READOUT KIND	RESULT
Cc1nn(CCN(C)C)cc1Nc1ncc(C(F)(F)F)c(NCCCN2CCCCC2=O)n1 [Example 21]	pIC50	7.00 to 7.60
Cc1nn([C@H]2CCN(C)C2)cc1Nc1ncc(Br)c(NCCCN2CCCCC2=O)n1 [Example 61]	pIC50	7.00 to 7.60
CC(C)CN1CC(n2cc(Nc3ncc(Cl)c(NCCCN4CCCCC4=O)n3)cn2)C1 [Example 11]	pIC50	6.30 to 7.00
Cc1nn(C2CCN(C(C)C)CC2)cc1Nc1ncc(C(F)(F)F)c(NCCCN2CCCOCC2=O)n1 [Example 108]	pIC50	7.00 to 7.60
[2H]C([2H])([2H])N1CCC(n2cc(Nc3ncc(Cl)c(NCCCN4CCCCC4=O)n3)c(C)n2)CC1 [Example 57]	pIC50	6.30 to 7.00
Cc1nn(C2CN(CC(C)C)C2)cc1Nc1ncc(Br)c(NCCCN2CCCC2=O)n1 [Example 154]	pIC50	< 6.30
CCc1nn(C2CCN(C)CC2)cc1Nc1ncc(Cl)c(NCCCN2CCCCC2=O)n1 [Example 55]	pIC50	6.30 to 7.00
CC(C)N1CCC(n2cc(Nc3ncc(C(F)(F)F)c(NCCCN4CCOCC4=O)n3)cn2)CC1 [Example 74]	pIC50	7.00 to 7.60
CN1CCC(n2cc(Nc3ncc(Cl)c(NCCCN4CCCCC4=O)n3)cn2)CC1 [Example 2]	pIC50	7.60 to 9.00
Cc1nn(C2CCN(C)CC2)cc1Nc1ncc(C(F)(F)F)c(NCCCN2CCCOCC2=O)n1 [Example 102]	pIC50	7.60 to 9.00
CN1CCC(n2cc(Nc3ncc(Cl)c(NCCCN4CCCCCC4=O)n3)cn2)CC1 [Example 81]	pIC50	7.60 to 9.00
Cc1nn([C@@H]2CCN(C)C2)cc1Nc1ncc(Cl)c(NCCCN2CCCCC2=O)n1 [Example 24]	pIC50	6.30 to 7.00
CC(C)N1CCC(n2cc(Nc3ncc(Cl)c(NCCCN4CCCCC4=O)n3)cn2)CC1 [Example 5]	pIC50	7.00 to 7.60
CCN1CC[C@H](n2cc(Nc3ncc(C(F)(F)F)c(NCCCN4CCCCC4=O)n3)c(C)n2)C1 [Example 66]	pIC50	7.00 to 7.60
CCc1nn(C2CCNCC2)cc1Nc1ncc(Cl)c(NCCCN2CCCCC2=O)n1 [Example 39]	pIC50	6.30 to 7.00
Cc1nn(CCN2CCCC2)cc1Nc1ncc(Br)c(NCCCN2CCCCC2=O)n1 [Example 62]	pIC50	6.30 to 7.00
CCN1CC[C@H](n2cc(Nc3ncc(Br)c(NCCCN4CCCCC4=O)n3)c(C)n2)C1 [Example 64]	pIC50	7.00 to 7.60

----------
Each record here notes measured pIC50.
EXPERIMENTAL SYSTEM: ULK1 kinase (Homo sapiens, UniProt O75385, E37A/K38A)
Construct: (residues 1-283; ID NO: 2)
ASSAY SUMMARY: Biochemical assay for ULK1.3 (coupled pyruvate kinase/lactate dehydrogenase assay)
PROTOCOL CONDITIONS: 0.1 nM ULK1 (from Beryllium), peptide substrate, 1 mM ATP
pIC50: −log10 of the molar value.
READOUT KIND: pIC50

MOLECULE	EXPERIMENTAL SYSTEM	READOUT KIND	RESULT
Cc1nn(C2CCN(C(C)C)CC2)cc1Nc1ncc(C(F)(F)F)c(NCCCN2CCCOC2=O)n1 [Example 68]	ULK1 kinase (Homo sapiens, UniProt O75385, E37A/K38A)	pIC50	7.00 to 7.60
CN1CCC(n2ccc(Nc3cc(NCCCN4CCCCC4=O)c(C(F)(F)F)cn3)n2)CC1 [Example 173]	ULK1 kinase (Homo sapiens, UniProt O75385, E37A/K38A)	pIC50	7.60 to 9.00
CCN(CC)CCn1cc(Nc2ncc(C(F)(F)F)c(NCCCN3CCOCCC3=O)n2)c(C)n1 [Example 146]	ULK1 kinase (Homo sapiens, UniProt O75385, E37A/K38A)	pIC50	6.30 to 7.00
Cc1cn(C2CCN(C)CC2)nc1Nc1ncc(C(F)(F)F)c(NCCCN2CCCOC2=O)n1 [Example 126]	ULK1 kinase (Homo sapiens, UniProt O75385, E37A/K38A)	pIC50	< 6.30
Cc1nn(CCCN2CCOCC2)cc1Nc1ncc(C2CC2)c(NCCCN2CCCOCC2=O)n1 [Example 115]	ULK1 kinase (Homo sapiens, UniProt O75385, E37A/K38A)	pIC50	< 6.30
Cc1nn(C(C)(C)C(N)=O)cc1Nc1ncc(C(F)(F)F)c(NCCCN2CCCOCC2=O)n1 [Example 125]	ULK1 kinase (Homo sapiens, UniProt O75385, E37A/K38A)	pIC50	< 6.30
Cc1nn(C2CCN(C(C)C)CC2)cc1Nc1ncc(C2CC2)c(NCCCN2CCCOCC2=O)n1 [Example 114]	ULK1 kinase (Homo sapiens, UniProt O75385, E37A/K38A)	pIC50	< 6.30
